Some compounds, each annotated with its measured melting point.

Some solved cases for reference:
CCCCCc1cc(CCN2CCN(c3ccccc3Cl)CC2)ccc1C.Cl
200 to 202 °C
CCCCCCc1cc(CCN2CCN(c3cccc(C(F)(F)F)c3)CC2)ccc1C.Cl
187 °C
CCCCCc1cc(CCN2CCN(c3cccc(C)c3)CC2)ccc1C.Cl.Cl
226 to 228 °C
CCCCCc1cc(CCN2CCN(c3cccc(C(F)(F)F)c3)CC2)ccc1OC.Cl
146 to 149 °C

Let us examine a further case.
Indicate the recorded melting point value for this compound: `CCCc1cc(CCN2CCN(c3cccc(C(F)(F)F)c3)CC2)ccc1OC.Cl`
184 to 185 °C
